assay: Restrictive medium S. cerevisiae growth inhibition, OD615, pilot screen of yeast lifespan reduction project, restrictive growth control (AID 706); settings: OD615, 48 h, at 10 µM, active compounds read high;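 further: modified DeaD lifespan yeast strain shifted to restrictive glucose medium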
READOUT TYPE: growth inhibition (%)

1) COc1ccc(C)cc1NC(=O)CN(c1ccccc1F)S(C)(=O)=O; -0.695
2) Cc1cc(C)cc(N(CC(=O)N2CCn3c2nc2ccccc23)S(=O)(=O)c2c(C)noc2C)c1; 11.2
3) CCOc1ccccc1NC(=O)C1Cc2ccccc2CN1S(C)(=O)=O (stereo unspecified); -7.46
4) COc1ccc(CCNc2nc(=O)[nH]nc2C)cc1OC; -16.5
5) COCCNS(=O)(=O)c1cccc2cccnc12; 12.8
6) CC(C)N1CCc2c(sc(NC(=O)c3ccc(S(=O)(=O)N4CCOCC4)cc3)c2C#N)C1; -3.24
